Tested on: HepG2
Experiment: MTT antiproliferative assay, HepG2
Settings: Homo sapiens, HepG2, 72 h, read-out: IC50 HepG2
Would you mind telling me the reported IC50 of each entry?
Please reply with the bare figure in nM and do not write the unit itself.

Ask: // lookup IC50 for CC(C)=CCC12OC(C)(C)C3CC(C=C4C(=O)c5c(OC(=O)N6CCOCC6)cccc5OC431)C2=O (stereo not drawn) [Compound 8d]
Result: 2310

Ask: // lookup IC50 for COc1cccc2c1C(=O)C1=CC3CC4C(C)(C)OC(CC=C(C)C)(C3=O)C14O2 (stereo not drawn) [Compound 3]
Result: 8550

Ask: // lookup IC50 for CC(C)=CCC12OC(C)(C)C3CC(C=C4C(=O)c5c(O)cccc5OC431)C2=O (stereo not drawn) [DDO-6101, reference compound]
Result: 1140

Ask: // lookup IC50 for CC(C)=CCC12OC(C)(C)C3CC(C=C4C(=O)c5c(OC(=O)N6CC=CC6)cccc5OC431)C2=O (stereo not drawn) [Compound 8h]
Result: 1750

Ask: // lookup IC50 for CC(C)=CCC12OC(C)(C)C3CC(C=C4C(=O)c5c(OC(=O)N(CCO)CCO)cccc5OC431)C2=O (stereo not drawn) [Compound 8j]
Result: 5210

Ask: // lookup IC50 for CC(C)=CCC[C@]1(C)C=Cc2c(O)c3c(c(CC=C(C)C)c2O1)O[C@]12C(=C[C@@H]4C[C@H]1C(C)(C)O[C@@]2(C/C=C(/C)C(=O)O)C4=O)C3=O [GA, gambogic acid, reference compound]
Result: 2080

Ask: // lookup IC50 for CC(C)=CCC12OC(C)(C)C3CC(C=C4C(=O)c5c(OC(=O)N(C(C)C)C(C)C)cccc5OC431)C2=O (stereo not drawn) [Compound 8k]
Result: 4760

Ask: // lookup IC50 for CC(C)=CCC12OC(C)(C)C3CC(C=C4C(=O)c5c(OC(=O)N6CCSC6)cccc5OC431)C2=O (stereo not drawn) [Compound 8i]
Result: 1610

Source: paper PMC5073322
